Where do these numbers come from? They come from patent US9302999B2.

System: galium (catchweed bedstraw, Galium aparine)
assay_overview: Test C pre-/postemergence: galium
Format: in vivo
condition: Preemergence, 62 g ai/ha; scale of 0 to 100, 0 is no effect, 100 is complete control
outcome_measure: Plant response rating, Galium
# print the numeric value only

Input: Output measured Plant response rating, Galium for this item: FCc1nn(-c2ccc(F)cc2)nc1Oc1ccnc(C(F)(F)F)c1
Output: 100

Input: Output measured Plant response rating, Galium for this item: CCc1nn(-c2ccc(C(F)(F)F)cc2)nc1Oc1ccnc(C(F)(F)F)c1
Output: 100

Input: Output measured Plant response rating, Galium for this item: CCc1nn(-c2ccc(C(F)(F)F)cc2)nc1Cc1ccnc(C(F)(F)F)c1
Output: 100

Input: Output measured Plant response rating, Galium for this item: CCOc1nn(-c2ccc(Cl)cc2)nc1Cc1ccnc(C(F)(F)F)c1
Output: 90

Input: Output measured Plant response rating, Galium for this item: CCCc1nn(-c2ccc(F)cc2F)nc1Oc1ccnc(C(F)(F)F)c1
Output: 100

Input: Output measured Plant response rating, Galium for this item: COc1nn(-c2cccc(F)c2)nc1Cc1ccnc(C(F)(F)F)c1
Output: 80

###

Tested on: morningglory (Ipomoea coccinea)
assay_overview: Test C pre-/postemergence: morningglory
Assay type: in vivo
condition: Preemergence, 250 g ai/ha; scale 0 to 100, 0 no effect, 100 complete control
outcome_measure: Plant response rating, Morningglory
# print the numeric value only

query_smiles: CCc1nn(-c2ccc(F)cc2)nc1Cc1ccnc(C(F)(F)F)c1
Plant response rating, Morningglory: 25

query_smiles: FC(F)(F)COc1nn(-c2ccc(C(F)(F)F)cc2)nc1Cc1ccnc(C(F)(F)F)c1
Plant response rating, Morningglory: 65

query_smiles: CCOc1nn(-c2ccc(C(F)(F)F)cc2)nc1Cc1ccnc(C(F)(F)F)c1
Plant response rating, Morningglory: 45

query_smiles: CCc1nn(-c2ccc(F)c(F)c2)nc1Oc1ccnc(C(F)(F)F)c1
Plant response rating, Morningglory: 25

query_smiles: COc1nn(-c2cccc(F)c2)nc1Cc1ccnc(C(F)(F)F)c1
Plant response rating, Morningglory: 55

query_smiles: CCc1nn(-c2ccc(C(F)(F)F)c(F)c2)nc1Oc1ccnc(C(F)(F)F)c1
Plant response rating, Morningglory: 95

Shift focus to the following entry.
Input: Output measured Plant response rating, Morningglory for this item: CCOc1nn(-c2ccc(Cl)cc2)nc1Cc1ccnc(C(F)(F)F)c1
Output: 100

###

Catalogue of Plant response rating, Ryegrass, Italian readings, one per entry.
Test system: ryegrass, Italian (Italian ryegrass, Lolium multiflorum)
assay_overview: Test C pre-/postemergence: ryegrass, Italian
Type: in vivo
condition: Preemergence, 125 g ai/ha; scale 0 to 100, 0 no effect, 100 complete control
# print the numeric value only

Worked set:
compound: Cc1nn(-c2ccc(C(F)(F)F)cn2)nc1Oc1ccnc(C(F)(F)F)c1 [Compound 23]
Plant response rating, Ryegrass, Italian: 25

compound: Cc1nn(-c2ccc(F)c(C(F)(F)F)c2)nc1Cc1ccnc(C(F)(F)F)c1 [Compound 156]
Plant response rating, Ryegrass, Italian: 90

compound: FCc1nn(-c2ccc(F)cc2)nc1Oc1ccnc(C(F)(F)F)c1 [Compound 160]
Plant response rating, Ryegrass, Italian: 90

compound: CCOc1nn(-c2ccc(F)cc2)nc1Cc1ccnc(C(F)(F)F)c1 [Compound 196]
Plant response rating, Ryegrass, Italian: 90

compound: COc1nn(-c2ccc(C(F)(F)F)cc2)nc1Cc1ccnc(C(F)(F)F)c1 [Compound 15]
Plant response rating, Ryegrass, Italian: 80

Shift focus to the following entry.
Input: Output measured Plant response rating, Ryegrass, Italian for this item: CCc1nn(-c2ccc(F)c(F)c2)nc1Oc1ccnc(C(F)(F)F)c1 [Compound 171]
Output: 60
